Organism: Rattus norvegicus
Protocol: Open TG-GATES - Regimen: Daily Repeat
Format: toxicity, organism-based, Sprague-Dawley
Set-up: regimen Daily Repeat, gender Male, age 6 weeks
Particulars: in vivo, po, 1000 mg/kg, 72 h, tissue Plasma, route gavage, dose level High, time 3 day

Compound String: O=C(OC[C@H]1O[C@@H](OC(=O)c2cc(O)c(O)c(OC(=O)c3cc(O)c(O)c(O)c3)c2)[C@H](OC(=O)c2cc(O)c(O)c(OC(=O)c3cc(O)c(O)c(O)c3)c2)[C@@H](OC(=O)c2cc(O)c(O)c(OC(=O)c3cc(O)c(O)c(O)c3)c2)[C@@H]1OC(=O)c1cc(O)c(O)c(OC(=O)c2cc(O)c(O)c(O)c2)c1)c1cc(O)c(O)c(OC(=O)c2cc(O)c(O)c(O)c2)c1
RALB [g/dL]: 3.6

Compound String: Cc1nnc2n1-c1ccc(Cl)cc1C(c1ccccc1Cl)=NC2
RALB [g/dL]: 2.6
